B1: Hairpin Ribozyme (parent)
chain: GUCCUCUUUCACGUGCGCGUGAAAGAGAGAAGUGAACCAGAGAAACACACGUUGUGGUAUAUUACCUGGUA

# Variants of: B1
# measurement_description: self-cleavage, relative activity (ratio to wild type); higher = more cleavage; co-transcriptional
observation_type: self-cleavage

{"columns": ["mutation_id", "observed_result"],
 "data": [
  ["G21C G68C", 0.155],
  ["C48G U53A", 0.101],
  ["C16U A36U", 0.804],
  ["U52C U67A", 0.178],
  ["C50U U67C", 0.157],
  ["A45U C66A", 0.204],
  ["G1C G54U", 0.274],
  ["U5G G17C", 0.35],
  ["C3U G29U", 0.117],
  ["A45G G57A", 0.0893],
  ["U14G U62C", 0.213],
  ["U5C C12U", 0.772],
  ["C12U A39U", 0.45],
  ["G17C A47U", 0.222],
  ["G13C U70C", 0.716],
  ["G13C U70A", 0.475],
  ["G15A G69A", 0.362],
  ["U5G A64U", 0.161],
  ["G15U G68A", 0.387],
  ["U2G C37A", 0.131],
  ["G25C A26U", 0.248],
  ["C4G U52C", 0.174]
]}
